- Test system: EBC-1
- PROTOCOL_DETAILS: relative viability (nuclei count vs DMSO), 5 days (fraction); higher = more cells survive
- CONDITION_PARAMETERS: first compound 0.2 µM
PARAMETER: relative viability
Lab note: jot the number down without any unit.

INPUT: Fill in: relative viability of CCNC(=O)c1noc(-c2cc(C(C)C)c(O)cc2O)c1-c1ccc(CN2CCOCC2)cc1 [Luminespib] + CC1(C)CCC(c2ccc(Cl)cc2)=C(CN2CCN(c3ccc(C(=O)NS(=O)(=O)c4ccc(N[C@H](CCN5CCOCC5)CSc5ccccc5)c(S(=O)(=O)C(F)(F)F)c4)cc3)CC2)C1 [Navitoclax] (partner 0.5 µM) is ___
OUTPUT: 0.133

INPUT: Query CN1CCN(CCOc2cc(OC3CCOCC3)c3c(Nc4c(Cl)ccc5c4OCO5)ncnc3c2)CC1 [Saracatinib] + CS(=O)(=O)CCNCc1ccc(-c2ccc3ncnc(Nc4ccc(OCc5cccc(F)c5)c(Cl)c4)c3c2)o1 [Lapatinib] (partner 2 µM) next
OUTPUT: 0.23

INPUT: Proceed to CCNC(=O)c1noc(-c2cc(C(C)C)c(O)cc2O)c1-c1ccc(CN2CCOCC2)cc1 [Luminespib] + Cc1nc(NC(=O)N2CCC[C@H]2C(N)=O)sc1-c1ccnc(C(C)(C)C(F)(F)F)c1 [Alpelisib] (partner 2 µM)
OUTPUT: 0.131

INPUT: Then this molecule: CCNC(=O)c1noc(-c2cc(C(C)C)c(O)cc2O)c1-c1ccc(CN2CCOCC2)cc1 [Luminespib] + CC(C)C[C@H](NC(=O)[C@H](Cc1ccccc1)NC(=O)c1cnccn1)B(O)O [Bortezomib] (partner 0.002 µM)
OUTPUT: 0.169

INPUT: For Cc1csc(=NC2CCCCC2)n1/N=C/c1ccc(O)c(O)c1O [MIM1] + C[C@@H](Oc1cc(-c2cnn(C3CCNCC3)c2)cnc1N)c1c(Cl)ccc(F)c1Cl [Crizotinib] (partner 1 µM) then?
OUTPUT: 0.207

INPUT: What about this molecule? CCNC(=O)c1noc(-c2cc(C(C)C)c(O)cc2O)c1-c1ccc(CN2CCOCC2)cc1 [Luminespib] + COc1cc2c(Oc3ccc(NC(=O)C4(C(=O)Nc5ccc(F)cc5)CC4)cc3F)ccnc2cc1OCCCN1CCOCC1 [Foretinib] (partner 0.25 µM)
OUTPUT: 0.104
